# EXPERIMENT: enhancers of VCAM-1 display on endothelial cells, cell-based, plate reader, pooled HUVEC, TNFa stimulus (AID 455)
# EXPERIMENTAL_CONTEXT: HUVEC TNFa-induced VCAM-1 immunofluorescence, 100% set by best visually verified hit,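 tested at 5 µM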
Among all 10,000 compounds or so, about 20 (0.2%) were called active.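 The calls were made as follows: active = a compound raising TNF-alpha-driven VCAM-1 surface staining, with its hit status upheld on visual or statistical review; inactive = the rest, including hits rejected on review.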 Only a selection was taken, and actives are over-represented in it overall.
Outcome codes: 1 (active), 0 (inactive)

# COMPOUND, GROUP_LABEL
rows = [
    ("CN(CCNC(=O)c1ccc(N2CCCC2=O)cc1)CCc1ccccc1", 0),
    ("COc1ccccc1NC(=O)NC(N)=O", 0),
    ("COc1ccc(NC(=O)CSc2nnc(Cc3cccn3C)n2-c2ccc(F)cc2)cc1", 0),
    ("Cc1noc(C)c1COc1cccc(C(=O)Oc2ccc3c(c2)OCO3)c1", 0),
    ("CCCC(=O)Nc1cc(C)c(NC(=O)c2ccccn2)cn1", 0),
    ("Cc1cccc(CCNC(=O)C2CCCN(S(=O)(=O)c3cnc[nH]3)C2)c1 (configuration not stated)", 0),
    ("O=C(OC1CCOC1=O)c1ccc2ccccc2n1 (configuration not stated)", 0),
    ("CCCSc1nnc(N2C(=O)CC(c3ccsc3)C3=C2CCCC3=O)s1 (configuration not stated)", 0),
    ("CC(O)c1nc2ccccc2n1C1CCCCC1 (configuration not stated)", 0),
    ("CCc1nc(N[C@@H](Cc2c[nH]c3ccccc23)C(=O)O)c2oc3ccccc3c2n1", 0),
    ("CCOC(=O)N1CCN(C(=O)Cn2ncn3nc(-c4cccs4)cc3c2=O)CC1", 0),
    ("CCCc1ccc(C(C)NC(=O)c2cnccn2)cc1 (configuration not stated)", 0),
    ("Cc1ccc(O)c(-c2cc3ccccc3[nH]2)c1", 0),
    ("CN(C)c1ccc(C=Nc2ccc(N(C)C)cc2)cc1", 0),
    ("CCCCn1nnc(NC(=O)c2cc3ccccc3o2)n1", 0),
    ("COc1ccc(Cn2c(CCCO)nc3ccccc32)cc1OC", 0),
    ("O=C1CCCN1Cc1ncnn1-c1ccccc1", 0),
    ("Cc1nnc(NC(=O)CSc2nc3c(c(=O)n2C)SC(C)C3)s1 (configuration not stated)", 0),
    ("COc1cccc(NC(=O)N(CCCN2CCOCC2)C(C)c2cc3cccc(OC)c3o2)c1 (configuration not stated)", 0),
    ("Cc1ccc(NC(=O)CSc2nnc(CSc3nc(C)cc(C)n3)n2Cc2ccco2)c(C)c1", 0),
    ("CC(C)NC(=O)CSc1nc2ccccc2n1-c1ccccc1", 0),
    ("CC(=O)N1C(=O)C2(C(C#N)=C(N)Oc3cc(C)oc(=O)c32)c2ccccc21 (configuration not stated)", 0),
    ("Cn1c(=O)cc(SCC(=O)NCc2cccnc2)c2ccccc21", 0),
    ("Cc1cccnc1NC(=O)CCCN1C(=O)c2ccccc2C1=O", 0),
    ("COCCn1c(-c2ccc(OC)c(OC)c2)nc2ccccc21", 1),
    ("COc1ccccc1C1/C(=C(\\O)c2c(C)nc3c(C)cccn23)C(=O)C(=O)N1CCCN(C)C (configuration not stated)", 0),
    ("COC(=O)C1C2C=CC3(CN(CC4CCCO4)C(=O)C13)O2 (configuration not stated)", 0),
    ("O=C(c1ccccc1)c1ccc2nc[nH]c2c1", 0),
    ("CN(C)c1ccc(C2C3=C(CCCC3=O)OC3=C2C(=O)CCC3)cc1", 0),
    ("Cc1cc(=O)n2nc(N3CCCC(C(=O)N4CCc5ccccc54)C3)sc2n1 (configuration not stated)", 0),
    ("Oc1cccc(C=NCc2ccccc2)c1O", 1),
    ("O=C(Cn1c(NCCO)nc2ccccc21)c1ccccc1", 0),
    ("CCOC(=O)NC(c1ccccc1)C1CCCCC1=O (configuration not stated)", 0),
    ("CCc1cc2ccc(C)cc2nc1SCC(=O)N1CCN(C(=O)c2ccco2)CC1", 0),
    ("CCCC(=O)NCCc1cc2c(C)ccc(C)c2[nH]c1=O", 0),
    ("Cc1nc2cc(NC(=O)N3c4ccccc4CC3C)ccc2o1 (configuration not stated)", 0),
    ("COc1ccc(NC(=O)c2ccco2)cc1NC(=O)c1cccs1", 0),
    ("COc1ccc(CN2C(=O)c3ccccc3C2C(=O)NC2CCCC2)c(OC)c1 (configuration not stated)", 0),
    ("COc1cc(-c2nc(S(=O)(=O)c3ccccc3)c(N3CCOCC3)o2)cc(OC)c1OC", 0),
    ("COC(=O)Cc1c(C)c2ccc(OCC(=O)N3CCOCC3)cc2oc1=O", 0),
    ("CN(C)c1ccc(CNn2cnnc2)cc1", 0),
    ("O=c1c2cn[nH]c2nc(SCc2ccc3c(c2)OCCO3)n1-c1ccccc1", 0),
    ("FC(F)Sc1nnc(-c2cccs2)n1-c1ccccc1", 0),
    ("COc1cccc(NC(=O)CSc2nnc(-c3cccs3)n2C)c1", 0),
    ("C=CCn1c(-c2ccc(OC)cc2)nc2ccccc21", 0),
    ("CCOC(=O)C1C2C=CC3(CN(Cc4ccco4)C(=O)C13)O2 (configuration not stated)", 0),
    ("O=C(CNC(=O)c1cccs1)NCCN1CCN(c2ccccc2F)CC1", 0),
]
